Reported pIC50 is given for each of the following compounds.
- Test system: LNCaP
- test-details: Cytotoxicity against human LNCaP cells assessed as reduction in cell proliferation by MTT assay
- Assay type: functional, cell-based
pIC50: −log10 of the molar value.

{"columns": ["smi", "comparison-symbol", "pIC50"],
 "data": [
  ["C=C1C[C@@H]([C@@H](C)[C@H]2CC[C@H]3[C@@H]4C[C@H]5O[C@]56[C@@H](OC(C)=O)C=CC(=O)[C@]6(C)[C@H]4CC[C@]23C)OC(=O)[C@@]12CCC1=C(C[C@@H]([C@@H](C)[C@H]3CC[C@H]4[C@@H]5C[C@H]6O[C@]67[C@@H](OC(C)=O)C=CC(=O)[C@]7(C)[C@H]5CC[C@]34C)OC1=O)C2", "<", 5.30],
  ["C=C1C[C@@H]([C@@H](C)[C@H]2CC[C@H]3[C@@H]4C[C@H]5O[C@]56[C@@H](O)C=CC(=O)[C@]6(C)[C@H]4CC[C@]23C)OC(=O)[C@@]12CCC1=C(C[C@@H]([C@@H](C)[C@H]3CC[C@H]4[C@@H]5C[C@H]6O[C@]67[C@@H](O)C=CC(=O)[C@]7(C)[C@H]5CC[C@]34C)OC1=O)C2", "=", 6.05],
  ["CC(=O)OCC1=C(C)C[C@H]([C@@H](C)[C@H]2CC[C@H]3[C@@H]4C[C@H]5O[C@]56[C@@H](O)C=CC(=O)[C@]6(C)[C@H]4CC[C@]23C)OC1=O", "=", 5.72]
]}

====

Reported IC50 is given for each of the following compounds.
- test-details: Cytotoxicity against human HFF cells assessed as reduction in cell proliferation by MTT assay
- Type: toxicity, cell-based

{"columns": ["compound", "IC50 [µM]"],
 "data": [
  ["C=C1C(=O)O[C@@H]([C@@H](C)[C@H]2CC[C@H]3[C@@H]4C[C@H]5O[C@]56[C@@H](OC(C)=O)C=CC(=O)[C@]6(C)[C@H]4CC[C@]23C)C=C1C", 2],
  ["CC(=O)OCC1=C(C)C[C@H]([C@@H](C)[C@H]2CC[C@H]3[C@@H]4C[C@H]5O[C@]56[C@@H](O)C=CC(=O)[C@]6(C)[C@H]4CC[C@]23C)OC1=O", 1.9],
  ["C=C1C[C@@H]([C@@H](C)[C@H]2CC[C@H]3[C@@H]4C[C@H]5O[C@]56[C@@H](O)C=CC(=O)[C@]6(C)[C@H]4CC[C@]23C)OC(=O)[C@@]12CCC1=C(C[C@@H]([C@@H](C)[C@H]3CC[C@H]4[C@@H]5C[C@H]6O[C@]67[C@@H](O)C=CC(=O)[C@]7(C)[C@H]5CC[C@]34C)OC1=O)C2", 0.6],
  ["C=C1C[C@@H]([C@@H](C)[C@H]2CC[C@H]3[C@@H]4C[C@H]5O[C@]56[C@@H](OC(=O)c5ccc([N+](=O)[O-])cc5)C=CC(=O)[C@]6(C)[C@H]4CC[C@]23C)OC(=O)[C@@]12CCC1=C(C[C@@H]([C@@H](C)[C@H]3CC[C@H]4[C@@H]5C[C@H]6O[C@]67[C@@H](OC(=O)c6ccc([N+](=O)[O-])cc6)C=CC(=O)[C@]7(C)[C@H]5CC[C@]34C)OC1=O)C2", 0.5],
  ["COc1cccc2c1C(=O)c1c(O)c3c(c(O)c1C2=O)C[C@@](O)(C(=O)CO)C[C@@H]3O[C@H]1C[C@H](N)[C@H](O)[C@H](C)O1 [DOXORUBICIN]", 1.4]
]}

====

Reported IC50 is given for each of the following compounds.
- test-details: Cytotoxicity against human HFF cells assessed as reduction in cell proliferation by MTT assay
- Assay type: toxicity, cell-based

{"columns": ["smi", "comparison-symbol", "IC50 / nM"],
 "data": [
  ["C=C1C[C@@H]([C@@H](C)[C@H]2CC[C@H]3[C@@H]4C[C@H]5O[C@]56[C@@H](OC(C)=O)C=CC(=O)[C@]6(C)[C@H]4CC[C@]23C)OC(=O)[C@@]12CCC1=C(C[C@@H]([C@@H](C)[C@H]3CC[C@H]4[C@@H]5C[C@H]6O[C@]67[C@@H](OC(C)=O)C=CC(=O)[C@]7(C)[C@H]5CC[C@]34C)OC1=O)C2", "=", 2500],
  ["C=C1C(=O)O[C@@H]([C@@H](C)[C@H]2CC[C@H]3[C@@H]4C[C@H]5O[C@]56[C@@H](O)C=CC(=O)[C@]6(C)[C@H]4CC[C@]23C)C=C1C", ">", 5000]
]}

====

- Tested on: LNCaP
- test-details: Cytotoxicity against human LNCaP cells assessed as reduction in cell proliferation by MTT assay
- Format: functional, cell-based
pIC50: −log10 of the molar value.

{"columns": ["smi", "comparison-symbol", "pIC50"],
 "data": [
  ["COc1cccc2c1C(=O)c1c(O)c3c(c(O)c1C2=O)C[C@@](O)(C(=O)CO)C[C@@H]3O[C@H]1C[C@H](N)[C@H](O)[C@H](C)O1", "=", 7.00],
  ["C=C1C[C@@H]([C@@H](C)[C@H]2CC[C@H]3[C@@H]4C[C@H]5O[C@]56[C@@H](OC(=O)c5ccc([N+](=O)[O-])cc5)C=CC(=O)[C@]6(C)[C@H]4CC[C@]23C)OC(=O)[C@@]12CCC1=C(C[C@@H]([C@@H](C)[C@H]3CC[C@H]4[C@@H]5C[C@H]6O[C@]67[C@@H](OC(=O)c6ccc([N+](=O)[O-])cc6)C=CC(=O)[C@]7(C)[C@H]5CC[C@]34C)OC1=O)C2", "=", 5.64],
  ["C=C1C(=O)O[C@@H]([C@@H](C)[C@H]2CC[C@H]3[C@@H]4C[C@H]5O[C@]56[C@@H](O)C=CC(=O)[C@]6(C)[C@H]4CC[C@]23C)C=C1C", "<", 5.30],
  ["C=C1C(=O)O[C@@H]([C@@H](C)[C@H]2CC[C@H]3[C@@H]4C[C@H]5O[C@]56[C@@H](OC(C)=O)C=CC(=O)[C@]6(C)[C@H]4CC[C@]23C)C=C1C", "=", 5.80]
]}

The reported numbers originate from ChEMBL document CHEMBL5344447.
